test system: ISC-enriched organoids; experiment: Primary screen, 384-well 2.5-D organoid differentiation (ENR+CD, 6 days): basal lysozyme secretion (LYZ.NS); format: cell-based, murine; details: strictly standardized mean difference; primary screen; 3rd of the 4 dose lines of the treatment (dose not given)
Each entry below carries its recorded SSMD.LYZ.NS.
OBSERVED_PROPERTY: SSMD.LYZ.NS

1) CC[C@H](C)C(=O)O[C@H]1C[C@@H](C)C=C2C=C[C@H](C)[C@H](CC[C@@H]3C[C@@H](O)CC(=O)O3)[C@H]21: −1.430
2) Cc1cc(Nc2cc(CN3CCOCC3)c3nc(C)c(Cc4ccc(Cl)cc4F)n3n2)n[nH]1: 0.582
3) O=C(Nc1cc(C(F)(F)F)cc(C(F)(F)F)c1)c1cc(Cl)ccc1O: 0.612

* * *

system: ISC-enriched organoids; experiment: Primary screen, 384-well 2.5-D organoid differentiation (ENR+CD, 6 days): basal lysozyme secretion (LYZ.NS); type: cell-based, murine; details: Dose 0.08 uM; primary screen, standard z score
Documented Z.LYZ.NS across a set of compounds
OBSERVED_PROPERTY: Z.LYZ.NS

1. CCOC(=O)CCNc1cc(N2CCc3ccccc3CC2)nc(-c2ccccn2)n1.Cl [GSK J4 HCl]: 0.508
2. CC(C)(C)c1cc(C(C)(C)C)c(NC(=O)c2c[nH]c3ccccc3c2=O)cc1O: 0.864
3. CCn1c(-c2nonc2N)nc2c(C#CC(C)(C)O)ncc(OC[C@H]3CCCNC3)c21: 0.388
4. CC(C)(C)Cn1c(N)nc2ccc(-c3[nH]c(C(C)(C)C)nc3-c3ccc(F)cc3)nc21: 0.569
5. Cc1ccc(C(=O)N(CCCN)[C@@H](c2nc3cc(Cl)ccc3c(=O)n2Cc2ccccc2)C(C)C)cc1 [Ispinesib (SB-715992)]: −1.931
6. Cc1noc(-c2ccc(CSCCC(=O)O)cc2)c1NC(=O)OC(C)c1ccccc1Cl (centres unmarked): 0.005
7. O=C(c1ccc(Nc2nccc(-c3cc4ccccc4s3)n2)cc1)N1CCC(N2CCCC2)CC1: 0.903
8. Cl.O=C(O)Cc1cccc(OCCCN(Cc2cccc(C(F)(F)F)c2Cl)CC(c2ccccc2)c2ccccc2)c1 [GW3965 HCl]: 0.516

* * *

test system: ISC-enriched organoids; test: Primary screen, 384-well 2.5-D organoid differentiation (ENR+CD, 6 days): carbachol-induced lysozyme secretion (LYZ.S); type: cell-based, murine; conditions: Dose 10.00 uM; primary screen, FC vs plate median
OBSERVED_PROPERTY: Dose.FC.LYZ.S (log 2 fold change)

1. CCN(CC)CCCC(C)Nc1nc(C)cc(Nc2ccc3nc(C)cc(N)c3c2)n1 (stereo not shown): 0.030
2. Cl.Cl.O=S(=O)(NCCNC/C=C/c1ccc(Br)cc1)c1cccc2cnccc12 [H 89 2HCl]: 0.000
3. CN(c1ncccc1CNc1nc(Nc2ccc3c(c2)CC(=O)N3)ncc1C(F)(F)F)S(C)(=O)=O: −0.414
4. Cc1cc(SCc2sc(-c3ccc(C(F)(F)F)c(F)c3)nc2C)ccc1OCC(=O)O: −0.183

* * *

test system: ISC-enriched organoids; experiment: Primary screen, 384-well 2.5-D organoid differentiation (ENR+CD, 6 days): basal lysozyme secretion (LYZ.NS); format: cell-based, murine; settings: dose 2.00 uM; vs plate median
Assign label 1 to entries whose Dose.FC.LYZ.NS (log 2 fold change, basal lysozyme secretion) meets or exceeds 0.05; assign label 0 to the rest.

1. O=C(NCc1ccccc1)c1csc(Nc2ccncn2)n1: label 0
2. Cc1cc(Nc2cc(N3CCN(C)CC3)nc(Sc3ccc(NC(=O)C4CC4)cc3)n2)n[nH]1: label 0
3. Nc1nc(N)c2nc(-c3cccc(O)c3)c(-c3cccc(O)c3)nc2n1: label 0
4. COc1cc2c(Nc3ccc(NC(=O)c4ccccc4)cc3)ncnc2cc1OCCCN1CCOCC1: label 1
5. COc1cc2ncnc(Nc3ccc(Cl)cc3F)c2cc1OC: label 0
6. C[C@H](NC(=O)Cc1cc(F)cc(F)c1)C(=O)N[C@@H]1C(=O)N(C)c2ccccc2-c2ccccc21: label 0
7. c1ccc(NCc2ccc(CNc3ccccn3)cc2)nc1: label 1
8. CCC(=O)Nc1cccc(Oc2nc(Nc3ccc(N4CCN(C)CC4)cc3OC)ncc2Cl)c1: label 0
9. COc1ccc2cc(-c3nc(-c4ccc([S+](C)[O-])cc4)[nH]c3-c3ccncc3)ccc2c1 (stereo not drawn): label 1

* * *

system: ISC-enriched organoids; assay: Primary screen, 384-well 2.5-D organoid differentiation (ENR+CD, 6 days, Target Selective Inhibitor Library, vs whole-plate median): ATP (CellTiter-Glo 3D, CTG); conditions: Dose 0.40 uM; standard z score of FC
OBSERVED_PROPERTY: Z.CTG

1. Cc1ccc2c(=O)c3cccc(CC(=O)O)c3oc2c1C: −1.502
2. Oc1cc(O)cc(/C=C/c2ccc(O)c(O)c2)c1: −0.216
3. CN(c1ncccc1CNc1nc(Nc2ccc3c(c2)CC(=O)N3)ncc1C(F)(F)F)S(C)(=O)=O: −0.518
4. COCCOc1ccc2c(c1)ncn2-c1ccc2cccc(N3CCC(N)CC3)c2n1: 0.445
5. CC(=O)c1cc([N+](=O)[O-])c(Sc2ccc(F)cc2F)s1: 0.117
6. CC(C)NC[C@@H](C(=O)N1CCN(c2ncnc3c2[C@H](C)C[C@H]3O)CC1)c1ccc(Cl)cc1: 0.283
7. C[C@]12C=CC(=O)N[C@@H]1CC[C@@H]1[C@@H]2CC[C@]2(C)[C@@H](C(=O)Nc3cc(C(F)(F)F)ccc3C(F)(F)F)CC[C@@H]12 [Dutasteride]: −0.636
8. COc1cc2c(cc1Cc1cccc(Cl)c1F)c(=O)c(C(=O)O)cn2[C@H](CO)C(C)C: −0.095

* * *

Test system: ISC-enriched organoids
Test: Primary screen, 384-well 2.5-D organoid differentiation (ENR+CD, 6 days): carbachol-induced lysozyme secretion (LYZ.S)
Type: cell-based, murine
Details: Dose 10.00 uM; primary screen, FC vs plate median
Description: High-throughput screening.
Measured Dose.FC.LYZ.S accompanies every entry in the list below.
OBSERVED_PROPERTY: Dose.FC.LYZ.S (log 2 fold change)

1. Cl.Cl.NC1(c2ccc(-c3nc4ccn5c(=O)[nH]nc5c4cc3-c3ccccc3)cc2)CCC1 [MK-2206 2HCl]: −0.367
2. COc1ccc(CNCc2cccc3ccccc23)cc1.Cl [ML133 HCl]: −0.014
3. Cc1cnc(-c2cc(N3CCN(C(=O)CCS(C)(=O)=O)CC3)ncc2Cl)c(C)c1: 0.076
4. CCCCCCCCCCCCCCCCn1cc[n+](Cc2ccccc2)c1C.[I-]: −0.374
5. Cc1ccc(NCCCc2ccccc2)c(N)c1: −0.026
6. NC(=O)c1cccc(-c2cc(Nc3ccc(OC(F)(F)F)cc3)ncn2)c1: −0.015
7. O=C(NNc1ccccc1)c1ccncc1: −0.372
8. Cc1cccc(-c2nn3c(c2-c2ccnc4ccc(C(N)=O)cc24)CCC3)n1: 0.223
9. Nc1ncnc2c1c(-c1cccc(OCc3ccccc3)c1)cn2C1CC(CN2CCCC2)C1 (centres unmarked): −0.210
10. C1=N/C2=N/c3ccc(OCCN4CCCC4)c(c3)COC/C=C/COCc3cccc(c3)C(=C1)N2 [Pacritinib (SB1518)]: −0.419
11. CC(C)(C)Cn1c(N)nc2ccc(-c3[nH]c(C(C)(C)C)nc3-c3ccc(F)cc3)nc21: −0.164
12. CC(C)(Cc1ccc2ccccc2c1)NC[C@@H](O)COc1cccc(Cl)c1C#N: −0.116
13. O=C(/C=C\n1cnc(-c2cc(C(F)(F)F)cc(C(F)(F)F)c2)n1)N1CC(F)(F)C1: −0.361
14. CC1=C(C(=O)Nc2cc3cn[nH]c3cc2F)C(c2ccc(C(F)(F)F)cc2)CC(=O)N1 (centres unmarked) [GSK429286A]: 0.099
15. O=C(c1ccc(Nc2nccc(-c3cc4ccccc4s3)n2)cc1)N1CCC(N2CCCC2)CC1: −0.383
16. CC(=O)c1c(C)c2cnc(Nc3ccc(N4CCNCC4)cn3)nc2n(C2CCCC2)c1=O.Cl [Palbociclib (PD-0332991) HCl]: −0.203
17. Cn1cc(/C=C2\C(=O)Nc3cccnc32)c2ccccc21: 0.071

* * *

test system: ISC-enriched organoids; test: Primary screen, 384-well 2.5-D organoid differentiation (ENR+CD, 6 days): basal lysozyme secretion (LYZ.NS); assay type: cell-based, murine; conditions: strictly standardized mean difference; primary screen; 2nd of the 4 dose lines of the treatment (dose not given)
OBSERVED_PROPERTY: SSMD.LYZ.NS

1. O=C(O)c1ccc(Nc2ncc3c(n2)-c2ccc(Cl)cc2C(c2c(F)cccc2F)=NC3)cc1 [MLN8054]: 0.061
2. C#Cc1cccc(Nc2ncnc3cc4c(cc23)OCCOCCOCCO4)c1 [Icotinib]: −0.710
3. Cc1cnc(NC(=O)Nc2cc(Br)c(C)cc2OC[C@@H]2CNCCO2)cn1 [LY2603618]: −0.697
4. CN(Cc1cnc2nc(N)nc(N)c2n1)c1ccc(C(=O)N[C@@H](CCC(=O)O)C(=O)O)cc1 [Methotrexate]: −0.349
5. CC[C@H](C)C(=O)O[C@H]1C[C@@H](C)C=C2C=C[C@H](C)[C@H](CC[C@@H]3C[C@@H](O)CC(=O)O3)[C@H]21 [Lovastatin]: −0.516
6. CCc1c2c(nc3ccc(OC(=O)N4CCC(N5CCCCC5)CC4)cc13)-c1cc3c(c(=O)n1C2)COC(=O)[C@]3(O)CC [Irinotecan]: −0.556
7. O=[N+]([O-])C=Cc1ccc2c(c1)OCO2: −0.082
8. N#Cc1ccc(C(c2ccc(C#N)cc2)n2cncn2)cc1 [Letrozole]: 1.104
